Would you mind telling me the reported Activity of each entry?
System: Mus musculus
Assay: Average change in weight is tested in mice at a dose of 2 mg/kg
Format: functional
Design: unit not given here
# answer = number (no unit)

Specify reported Activity for the molecule shown: COC(C(=O)C(O)C(C)O)C1Cc2cc3cc(OC4CC(OC(C)=O)C(OC5CC(O)C(OC)C(C)O5)C(C)O4)cc(O)c3c(O)c2CC1OC1CC(OC2CC(OC3CC(C)(O)C(OC(=O)C(C)C)C(C)O3)C(O)C(C)O2)C(O)C(C)O1 (configuration not stated) 0.7

Specify reported Activity for the molecule shown: COC(/C(=N/Nc1ccccc1)C(O)C(C)O)C1Cc2cc3cc(OC4CC(OC(C)=O)C(OC5CC(O)C(OC)C(C)O5)C(C)O4)cc(O)c3c(O)c2C(=O)C1OC1CC(OC2CC(OC3CC(C)(O)C(OC(=O)C(C)C)C(C)O3)C(O)C(C)O2)C(O)C(C)O1 (configuration not stated) 0.2
